assay-system: UniProt P11309
Sequence (P11309 whole entry): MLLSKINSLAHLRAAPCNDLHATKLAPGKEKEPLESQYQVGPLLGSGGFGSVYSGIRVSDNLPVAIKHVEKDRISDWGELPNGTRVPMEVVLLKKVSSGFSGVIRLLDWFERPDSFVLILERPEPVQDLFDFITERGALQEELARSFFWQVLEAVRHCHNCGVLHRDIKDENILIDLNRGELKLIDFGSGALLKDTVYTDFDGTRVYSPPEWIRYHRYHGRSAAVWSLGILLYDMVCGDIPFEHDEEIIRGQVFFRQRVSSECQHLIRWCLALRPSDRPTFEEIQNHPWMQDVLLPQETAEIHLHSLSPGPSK
assay-overview: KinaseGlo Pim1 ATP depletion assay
Assay type: biochemical
condition-set: Table 4, 2.5 nM PIM1, 20 μM ATP, 40 μM BAD peptide
pIC50: −log10 of the molar value.
assay-endpoint: pIC50

P. C[C@H]1C[C@@H](c2ccncc2NC(=O)c2ccc(F)c(-c3c(F)ccc(C#N)c3F)n2)C[C@@H](O)[C@]1(C)O
Q. CC[C@]1(O)[C@H](O)C[C@H](c2ccncc2NC(=O)c2nc(-c3c(F)cccc3F)c(F)cc2N)C[C@@H]1C
R. C[C@H]1C[C@@H](c2ccncc2NC(=O)c2nc(-c3ccnnc3)ccc2N)C[C@@H](O)[C@]1(C)O
S. Cc1c(-c2ccc(N)c(C(=O)Nc3cnccc3[C@H]3C[C@@H](O)[C@](C)(O)[C@@H](C)C3)n2)cnn1C
Query block: Ascending sort, pIC50. Order the labels as requested and give them as your answer.
Result block: R, S, P, Q

====

assay-system: UniProtKB Q86V86
assay-overview: Pim3 AlphaScreen assay (high ATP)
pIC50: −log10 of the molar value.
assay-endpoint: pIC50

compound-structure	numeric-value
COCCOc1cc(F)c(-c2nc(C(=O)Nc3cnccc3[C@H]3C[C@@H](O)[C@](C)(O)[C@@H](C)C3)c(N)cc2F)c(F)c1	7.40

A. C[C@H]1C[C@@H](c2ccncc2NC(=O)c2ccc(F)c(-c3c(F)cc(OCC4CCOCC4)cc3F)n2)C[C@@H](N)[C@]1(C)O
B. COc1cc(F)c(-c2nc(C(=O)Nc3cnccc3[C@H]3C[C@@H](O)[C@](C)(O)[C@@H](C)C3)ccc2F)c(F)c1
Query block: Of the two listed items, A and B , which carries the larger pIC50 figure? Your answer should be the label attached to the chosen record.
Result block: A

====

assay-system: Pim3 kinase (Homo sapiens)
assay-overview: Pim3 AlphaScreen assay (high ATP)
assay-endpoint: IC50 (nM)

compound	numeric-value
C[C@H]1C[C@@H](c2ccncc2NC(=O)c2ccc(F)c(-c3c(F)cc(C(C)(C)O)cc3F)n2)C[C@@H](N)[C@]1(C)O [Example 66]	1.64
C[C@H]1C[C@@H](c2ccncc2NC(=O)c2ccc(F)c(-c3c(F)cc(C(C)(C)C#N)cc3F)n2)C[C@@H](N)[C@]1(C)O [Example 86]	2.46
C[C@H]1C[C@@H](c2ccncc2NC(=O)c2ccc(F)c(-c3c(F)cc(C4CCOCC4)cc3F)n2)C[C@@H](N)[C@]1(C)O [Example 71]	0.72
C[C@H]1C[C@@H](c2ccncc2NC(=O)c2ccc(F)c(-c3c(F)cc(C4CCS(=O)(=O)CC4)cc3F)n2)C[C@@H](O)C1(C)O (stereo in doubt) [Example 120]	31.5
C[C@H]1C[C@@H](c2ccncc2NC(=O)c2ccc(F)c(-c3c(F)cc(C4(C#N)CCOCC4)cc3F)n2)C[C@@H](N)[C@]1(C)O [Example 88]	5.59

1. C[C@@H]1C[C@H](c2ccncc2NC(=O)c2nc(-c3c(F)cccc3F)c(F)cc2N)C[C@H](O)[C@]1(O)CF [Example 24]
2. C[C@H]1C[C@@H](c2ccncc2NC(=O)c2ccc(F)c(-c3c(F)cc(OCC(F)(F)F)cc3F)n2)C[C@@H](N)[C@]1(C)O [Example 118]
3. C[C@H]1C[C@@H](c2ccncc2NC(=O)c2nc(-c3cccc(OC(F)F)n3)ccc2N)C[C@@H](O)[C@]1(C)O [Example 123]
Query block: Order the records by IC50, with each subsequent value no larger than the one before. Order the labels as requested and give them as your answer.
Result block: 1, 3, 2
(1: 786 nM, 3: 454 nM, 2: 1.61 nM)

====

assay-system: Pim3 kinase (Homo sapiens, UniProt Q86V86)
assay-overview: Pim3 AlphaScreen assay (high ATP)
pIC50: −log10 of the molar value.
assay-endpoint: pIC50

compound	assay-system	assay-endpoint	numeric-value
C[C@H]1C[C@@H](c2ccncc2NC(=O)c2ccc(F)c(-c3c(F)cc(C4(F)CCOCC4)cc3F)n2)C[C@@H](O)[C@]1(C)O [Example 113]	Pim3 kinase (Homo sapiens, UniProt Q86V86)	pIC50	6.90

a. C[C@H]1C[C@@H](c2ccncc2NC(=O)c2ccc(F)c(-c3c(F)cc(C4(O)COC4)cc3F)n2)C[C@@H](O)[C@]1(C)O [Example 76]
b. C[C@H]1C[C@@H](c2ccncc2NC(=O)c2nc(-c3c(F)cc(C4(F)CCOCC4)cc3F)sc2N)C[C@@H](N)[C@]1(C)O [Example 84]
Query block: Please indicate which has the smaller reported pIC50: a , or b . Your answer should be the label attached to the chosen record.
Result block: a

====

assay-system: Pim2 kinase (Homo sapiens, UniProt Q9P1W9)
Sequence (Q9P1W9 whole entry): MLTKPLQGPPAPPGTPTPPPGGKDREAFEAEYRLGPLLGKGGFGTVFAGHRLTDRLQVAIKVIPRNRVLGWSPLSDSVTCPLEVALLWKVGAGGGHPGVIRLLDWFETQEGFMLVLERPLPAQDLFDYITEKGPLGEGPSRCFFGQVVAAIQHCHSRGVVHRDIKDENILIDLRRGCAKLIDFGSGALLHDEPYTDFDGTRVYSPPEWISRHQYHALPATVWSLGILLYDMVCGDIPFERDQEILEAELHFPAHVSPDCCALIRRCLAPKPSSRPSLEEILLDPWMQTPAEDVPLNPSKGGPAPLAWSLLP
assay-overview: KinaseGlo Pim2 ATP depletion assay
Assay type: biochemical
condition-set: Table 4, 5 nM PIM2, 4 μM ATP, 10 μM BAD peptide
pIC50: −log10 of the molar value.
assay-endpoint: pIC50

molecule	assay-system	assay-endpoint	numeric-value
C[C@H]1C[C@@H](c2ccncc2NC(=O)c2nc(-c3ccccc3)cnc2N)C[C@@H](O)[C@]1(C)O [Example 37]	Pim2 kinase (Homo sapiens, UniProt Q9P1W9)	pIC50	8.31
COc1cc(F)c(-c2cccc(C(=O)Nc3cnccc3[C@H]3C[C@@H](O)[C@](C)(O)[C@@H](C)C3)n2)c(F)c1 [Example 50]	Pim2 kinase (Homo sapiens, UniProt Q9P1W9)	pIC50	8.46
CC[C@]1(O)[C@H](C)C[C@H](c2ccncc2NC(=O)c2ccc(F)c(-c3c(F)cccc3F)n2)C[C@@H]1O [Example 42]	Pim2 kinase (Homo sapiens, UniProt Q9P1W9)	pIC50	6.07

a. C[C@@H]1C[C@H](c2ccncc2NC(=O)c2csc(-c3c(F)cccc3F)n2)C[C@H](N)[C@@]1(C)O [Example 25]
b. C[C@H]1C[C@@H](c2ccncc2NC(=O)c2ccc(F)c(-c3c(F)ccc(N)c3F)n2)C[C@@H](O)[C@]1(C)O [Example 56]
Query block: Please indicate which has the smaller reported pIC50: a , or b . Your answer should be the label attached to the chosen record.
Result block: a

a. CC(=O)OC[C@]1(O)[C@H](O)C[C@H](c2ccncc2NC(=O)c2ccc(F)c(-c3c(F)cccc3F)n2)C[C@@H]1C [Example 43]
b. C[C@H]1C[C@@H](c2ccncc2NC(=O)c2nc(-c3ccc(F)c(F)c3)ccc2N)C[C@@H](O)[C@]1(C)O [Example 129]
Query block: Of the two listed items, a and b , which carries the larger pIC50 figure? Your answer should be the label attached to the chosen record.
Result block: a
(a: 8.70, b: 7.70)

====

assay-system: UniProt:Q86V86
assay-overview: Pim3 AlphaScreen assay (high ATP)
pIC50: −log10 of the molar value.
assay-endpoint: pIC50

Examples from the recorded data:
compound-structure	numeric-value
C[C@H]1C[C@@H](c2ccncc2NC(=O)c2ccc(F)c(-c3c(F)cc(C(C)(C)O)cc3F)n2)C[C@@H](O)[C@]1(C)O	7.20
C[C@H]1C[C@@H](c2ccncc2NC(=O)c2ccc(F)c(-c3c(F)cc(OC4CCNCC4)cc3F)n2)C[C@@H](O)[C@]1(C)O	7.74
COCCCOc1cc(F)c(-c2nc(C(=O)Nc3cnccc3[C@H]3C[C@@H](N)[C@](C)(O)[C@@H](C)C3)ccc2F)c(F)c1	9.16

1. C[C@H]1C[C@@H](c2ccncc2NC(=O)c2ccc(F)c(-c3c(F)cc4c(c3F)OCC4)n2)C[C@@H](N)[C@]1(C)O
2. CSc1cc(F)c(-c2nc(C(=O)Nc3cnccc3[C@H]3C[C@@H](N)[C@](C)(O)[C@@H](C)C3)ccc2F)c(F)c1
3. C[C@@H]1C[C@H](c2ccncc2NC(=O)c2ccc(F)c(-c3c(F)cc(S(C)(=O)=O)cc3F)n2)C[C@H](O)[C@@]1(C)O
Query block: Order the records by pIC50, with each subsequent value no larger than the one before. Order the labels as requested and give them as your answer.
Result block: 1, 2, 3

====

assay-system: Pim2 kinase (Homo sapiens, UniProt Q9P1W9)
assay-overview: Pim2 AlphaScreen assay (high ATP)
assay-endpoint: IC50 (nM)

compound	IC50 (nM)
C[C@H]1C[C@@H](c2ccncc2NC(=O)c2ccc(F)c(-c3c(F)cc(C4(O)CCC4)cc3F)n2)C[C@@H](N)[C@]1(C)O	3.85
C[C@H]1C[C@@H](c2ccncc2NC(=O)c2nc(-c3ncccc3F)c(F)cc2N)C[C@@H](O)C1(C)O (stereo in doubt)	2140
CC1C[C@@H](c2ccncc2NC(=O)c2ccc(F)c(-c3c(F)cc(Oc4ccncc4)cc3F)n2)C[C@@H](O)[C@]1(C)O (stereo in doubt)	672
Cc1noc(C)c1-c1cc(F)c(-c2nc(C(=O)Nc3cnccc3[C@H]3C[C@@H](N)[C@](C)(O)[C@@H](C)C3)ccc2F)c(F)c1	114
C[C@H]1C[C@@H](c2ccncc2NC(=O)c2ccc(F)c(-c3c(F)cc(C(C)(C)O)cc3F)n2)C[C@@H](O)[C@]1(C)O	156

1. C[C@@H]1C[C@H](c2ccncc2NC(=O)c2ccc(F)c(-c3c(F)cc(C4(O)COC4)cc3F)n2)C[C@H](O)[C@@]1(C)O
2. C[C@H]1C[C@@H](c2ccncc2NC(=O)c2nc(-c3c(F)cc(C4(F)CCOCC4)cc3F)sc2N)C[C@@H](N)[C@]1(C)O
3. COc1cc(F)c(-c2nc(C(=O)Nc3cnccc3[C@H]3C[C@@H](O)[C@](C)(O)[C@@H](C)C3)ccc2F)c(F)c1
4. C[C@H]1C[C@@H](c2ccncc2NC(=O)c2ccc(F)c(-c3c(F)cc(C4(F)CCOCC4)cc3F)n2)C[C@@H](O)[C@]1(C)O
Query block: // ascending sort on recorded IC50 Order the labels as requested and give them as your answer.
Result block: 2, 4, 3, 1
(2: 2.8 nM, 4: 128 nM, 3: 201 nM, 1: 8640 nM)
